biological target: UniProtKB Q9NYA1; assay: Reporter Assay: sphingosine kinase conversion of fluorescein-labeled sphingosine, read on Lab Chip 3000; details: 2 μM Fl-sphingosine, 25 μM ATP, 300 ng/ml SK1, 1 hour at room temperature; from percent conversion of substrate to product; read-out: SPHK-1 IC50 (n =)
Please use YES for IC50 under 900 nM and NO for everything else, ties included.

>>> print(df.to_string())
                                 itemsmiles  classassignment
0  O=C(NCc1ccc2oc(CC3CCCCC3)cc2c1)[C@H]1NCC[C@@H]1O              YES
1  C[C@@H](O)[C@H](N)C(=O)Nc1ccc(CCCCCOc2ccc(F)cc2)cc1               NO
2  O=C(NCc1ccc(-n2cc(CCc3ccc(F)cc3)nn2)cc1)[C@H]1NCC[C@@H]1O               NO
3     CCCCCCCCc1ccc(NC[C@H]2NCC[C@@H]2O)cc1              YES
4  CCCCCCCc1ccc(CNC(=O)[C@H]2NCC[C@@H]2O)cc1              YES
5  O=C(NCc1ccc2oc(CCC3CCCCC3)cc2c1)[C@H]1NCC[C@@H]1O              YES

###

Measured IC50 values are reported for all entries that follow.
molecular target: SPHK-1 (Homo sapiens); construct: purchased BPS Bioscience; assay: Reporter Assay: sphingosine kinase conversion of fluorescein-labeled sphingosine, read on Lab Chip 3000; format: biochemical; conditions: 2 μM Fl-sphingosine, 25 μM ATP, 300 ng/ml SK1, 1 hour at room temperature; from percent conversion of substrate to product; read-out: SPHK-1 IC50 (n =)
measuredAttribute: IC50 (nM)

In [3]: df
Out[3]:
                                 itemsmiles           testedtarget  qualifiersign  quantitativereadout
0  CCCCCCCCc1ccc(NC(=O)[C@H]([C@H](C)O)N(CCC)CCC)cc1  SPHK-1 (Homo sapiens)              >                 1000
1  CCCCCCCc1nc(-c2ccc(CNC(=O)[C@@H](N)CCO)cc2)no1  SPHK-1 (Homo sapiens)              =                  600
2  O=C(Nc1ccc(CCCC2CCCCC2)cc1)[C@H]1NCC[C@@H]1O  SPHK-1 (Homo sapiens)              =                  950
3  O=C(NCc1ccc(CCCCCOc2ccc(F)cc2)cc1)[C@H]1NCC[C@@H]1O  SPHK-1 (Homo sapiens)              =                 4700
4  CCCCCCCCc1ccc(NC(=O)[C@H](N)[C@@H](C)O)cc1  SPHK-1 (Homo sapiens)              =                 1600

###

Measured pIC50 values are reported for all entries that follow.
target: SPHK-1 (Homo sapiens, UniProt Q9NYA1); assay: Reporter Assay: sphingosine kinase conversion of fluorescein-labeled sphingosine, read on Lab Chip 3000; settings: 2 μM Fl-sphingosine, 25 μM ATP, 300 ng/ml SK1, 1 hour at room temperature; from percent conversion of substrate to product; read-out: SPHK-1 IC50 (n =)
Sequence (Q9NYA1 whole entry): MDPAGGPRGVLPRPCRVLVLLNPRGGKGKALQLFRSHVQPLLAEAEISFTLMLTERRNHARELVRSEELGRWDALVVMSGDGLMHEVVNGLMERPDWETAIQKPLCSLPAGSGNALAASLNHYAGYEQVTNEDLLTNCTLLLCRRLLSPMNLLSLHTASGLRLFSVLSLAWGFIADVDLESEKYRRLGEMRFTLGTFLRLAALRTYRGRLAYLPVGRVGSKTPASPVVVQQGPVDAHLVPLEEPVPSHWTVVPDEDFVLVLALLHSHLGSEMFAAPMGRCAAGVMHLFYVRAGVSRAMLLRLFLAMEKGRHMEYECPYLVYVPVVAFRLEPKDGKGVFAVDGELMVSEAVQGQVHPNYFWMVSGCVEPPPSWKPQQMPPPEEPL
pIC50: −log10 of the molar value. Counter-ions that a name gives are not always drawn.
measuredAttribute: pIC50

>>> df
                                    compound  qualifiersign  quantitativereadout
 0  O=C(NCc1ccc(-n2cc(CCc3ccccc3)cn2)cc1)[C@H]1NCC[C@@H]1O              =                 7.19
 1  CCCCCCCCc1ccc(NC(=O)[C@@H](N)[C@H](C)O)cc1              =                 5.96
 2  CCCCCCCc1nc(-c2ccc3c(c2)CC[C@@H]3NC(=O)[C@H]2NCC[C@@H]2O)no1              =                 7.22
 3  O=C(NCc1ccc2oc(CCOc3ccc(F)cc3)cc2c1)[C@H]1NCC[C@@H]1O              =                 5.30
 4  CCCCCCCCc1cc2cc(CNC(=O)[C@H]3NCC[C@@H]3O)ccc2[nH]1              =                 5.03
 5  CCCCc1ccc(-c2nc(-c3ccc(CNC(=O)[C@H]4NCC[C@@H]4O)cc3)no2)cc1              =                 5.43
 6  CCCCCCCCc1ccc(CCNC(=O)[C@H]2NCC[C@@H]2O)cc1              =                 5.19
 7  CCCCCCCCCc1ccc(NC(=O)[C@@H](N)[C@@H](C)O)cc1              =                 6.74
 8  CC[C@H](NC(=O)[C@H]1NCC[C@@H]1O)c1ccc(-c2noc(C3CCCCC3)n2)cc1 [Example 99, hemi-tartrate salt]              =                 6.89
 9       CCCCCCCCc1ccc(NC(=O)[C@@H](N)CO)cc1              =                 5.37
10  CCCCCCCCc1cc2cc(CNC(=O)[C@H]3NCC[C@@H]3O)c(F)cc2o1              =                 6.15
11  CCCCCCCCc1ccc(NC(=O)[C@@H](N)[C@@H](C)O)cc1              =                 6.06
12  CCCCCCOCc1ccc(NC(=O)[C@H]2NCC[C@@H]2O)cc1              =                 6.00
13  CCCCCCCCCc1ccc(NC(=O)C(N)CO)cc1 (racemic)              =                 5.42
14  CCCCCCCCc1cc2ccc(CNC(=O)[C@H]3NCC[C@@H]3O)cc2o1              =                 6.31
15  CCCCCCSCc1ccc(NC(=O)[C@H]2NCC[C@@H]2O)cc1              =                 6.96
16  CCCCCCSCCc1ccc(NC(=O)[C@H]2NCC[C@@H]2O)cc1              =                 8.15
17  CCCCCCC(O)CCCc1ccc(NC(=O)[C@@H](N)[C@@H](C)O)cc1 (stereo partly drawn)              =                 5.16
18  CCCCCCOCc1ccc(NC(=O)[C@@H](N)[C@@H](C)O)cc1              =                 5.09
19           CCCCCCCCc1ccc(NC[C@@H](N)CO)cc1              =                 5.30
20  CCCCCCCSCc1ccc(CNC(=O)[C@H]2NCC[C@@H]2O)cc1              =                 6.74
21  CCCCCCCc1ccc(-c2noc(CNC(=O)[C@H]3NCC[C@@H]3O)n2)cc1              =                 6.66
22  CCCCCCCCCCc1ccc(NC(=O)[C@H]2NCCC[C@H]2O)cc1 (relative stereo)              <                 5.00
23  CCCCCCCCc1ccc(NC(=O)[C@@H](NCC2CCCCC2)[C@H](C)O)cc1              <                 6.00
24  CCCCCCCCCCc1ccc(NC(=O)[C@H]2C[C@H](O)CCN2)cc1              =                 5.01
25  C[C@@H](O)[C@H](N)C(=O)Nc1ccc(CCCCCCCOc2ccc(F)cc2)cc1              =                 5.44
26  CCCCCCCCc1ccc([C@H](C)NC(=O)[C@H]2NCC[C@@H]2O)cc1              =                 6.72
27  Cn1nc(-c2ccc(CNC(=O)[C@H]3NCC[C@@H]3O)cc2)nc1C1CCCCC1              =                 5.68
28  CC[C@H](NC(=O)[C@H]1NCC[C@@H]1O)c1ccc(-n2cc(CCc3ccccc3)nn2)cc1              =                 6.85
29  CCCCCCCCCCCCc1ccc(NC(=O)[C@@H](N)[C@@H](C)O)cc1              =                 6.72
30  CCCCCCCCc1ccc(NC(=O)[C@H]2NC[C@H](O)[C@@H]2O)cc1              =                 5.08
31  O=C(NCc1cc(F)c2oc(CC3CCCC3)cc2c1)[C@H]1NCC[C@@H]1O              =                 5.64
32        CCCCCCCCc1ccc(NC(=O)[C@H](N)CO)cc1              =                 5.30
33  CCCCC(=O)CCCCCc1ccc(NC(=O)[C@@H](N)[C@@H](C)O)cc1              =                 5.21
34  CCCCCCCCOc1ccc(NC(=O)[C@@H](N)[C@@H](C)O)cc1              =                 6.34
35  CCCCCCCCCCc1ccc(NC(=O)[C@@H]2C[C@@H](O)CCN2)cc1              =                 5.57
